compounds and their reported GI50
Tested on: SNB-19
Assay: NCI tumour cell line growth inhibition, 48 h
Calls of active or inactive are those of the source. Cut-off read from the data, not from the text of the source: active = GI50 up to about 1.1 µM and inactive = higher. Starred links: 1 amine or outer side, 2 acyl side, 3 side chain; linkers in the order of their positions; H or OH if unused. Non-standard residues stand in square brackets, D forms with d. Residues, ends and D or L forms follow the SMILES beside them. X35 = C=CCC(O[*:1])C(=O)[*:2]; NMeV = CN[CH](C(=O)O)C(C)C; NMeA = CN[CH](C)C(=O)O; βAla = NCCC(=O)O

{"compound": "COC(=O)c1ccc(C=C(C#N)C#N)cc1", "readout.type": "GI50", "measured": "38.5 µM (inactive)"}
{"compound": "C=CCN1C(=O)CNC1=S", "readout.type": "GI50", "measured": "> 100 µM (inactive)"}
{"compound": "O=c1[nH]nc(Cc2ccc([N+](=O)[O-])cc2)n1CCO", "readout.type": "GI50", "measured": "> 100 µM (inactive)"}

Record summary for CC12CCC(CC1=O)C2(C)CCC(N)=O (stereo not given) : reported GI50 = > 100 µM (inactive)

Record summary for O=C(NN1C(=O)CSC1c1cccc(F)c1)c1ccncc1 (stereo not given) : reported GI50 = > 100 µM (inactive)

Record summary for Brc1cccc(C2ON=C(c3ccccc3)N2C23CC4CC(CC(C4)C2)C3)c1 (stereo not given) : reported GI50 = > 10 µM (inactive)

Record summary for `CCO[C@@]1(COCc2ccccc2)OC(=O)C[C@@H]1N1C(=O)OC[C@@H]1c1ccccc1` : reported GI50 = > 100 µM (inactive)

Record summary for OC(C1CO1)C(O)C1CO1 (stereo not given) : reported GI50 = 58.9 µM (inactive)

Record summary for C=CCC1OC(=O)CCNC(=O)C(C)N(C)C(=O)C(C(C)C)N(C)C(=O)C(C(C)CC)NC(=O)C2CCCN2C1=O (stereo not given) (cyclo([X35]PI[NMeV][NMeA][βAla]); configuration not given here) : reported GI50 = > 100 µM (inactive)

Record summary for COc1ccc2oc(C(=O)N3CC(CCl)c4ccc(N)cc43)cc2c1 (stereo not given) : reported GI50 = 1.14 µM (inactive)
